The values you see were collected from patent US8633168B2.

test_description: Microsomal stability, rat
Assay type: in vitro ADME
condition_label: liver microsomes, Example 12 chart
Each item that follows carries a reported CLint scaled.

Below, 3 compounds whose answers are already recorded.
- compound: "Cc1nc2c(N)ncnc2n1[C@@H]1O[C@H](CN(C)C/C=C\\CN)[C@@H](O)[C@H]1O (stereo in doubt)"
  CLint scaled: "< 7.7 mL/min/kg"
- compound: "CN(C/C=C\\CN)C[C@H]1O[C@@H](n2cnc3c(N)ncnc32)[C@@H](F)[C@@H]1O"
  CLint scaled: "< 7.7 mL/min/kg"
- compound: "CN(C/C=C\\CN)C[C@H]1O[C@@H](n2cnc3c(N)ncnc32)[C@H](F)[C@@H]1O (stereo in doubt)"
  CLint scaled: "< 7.7 mL/min/kg"

Sample CN(C/C=C\CN)C[C@H]1O[C@@H](n2cnc3c(N)nc(Cl)nc32)[C@H](O)[C@@H]1O ; CLint scaled observed: < 7.7 mL/min/kg

###

target_or_system: CYP3A4 (Homo sapiens)
Sequence (P08684 whole entry): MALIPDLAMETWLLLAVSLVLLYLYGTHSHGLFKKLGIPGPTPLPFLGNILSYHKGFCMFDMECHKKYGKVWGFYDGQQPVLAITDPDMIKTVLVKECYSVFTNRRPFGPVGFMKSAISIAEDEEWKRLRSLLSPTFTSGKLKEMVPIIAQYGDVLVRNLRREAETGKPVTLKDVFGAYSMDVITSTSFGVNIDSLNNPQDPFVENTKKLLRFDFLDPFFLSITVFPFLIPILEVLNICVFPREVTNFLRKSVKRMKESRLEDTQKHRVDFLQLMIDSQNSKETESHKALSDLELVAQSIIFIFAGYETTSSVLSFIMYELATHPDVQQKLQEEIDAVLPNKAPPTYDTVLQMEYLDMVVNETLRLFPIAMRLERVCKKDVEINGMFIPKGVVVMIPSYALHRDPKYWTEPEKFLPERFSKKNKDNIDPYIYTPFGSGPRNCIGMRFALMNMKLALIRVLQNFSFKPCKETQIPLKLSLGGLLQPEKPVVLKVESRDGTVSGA
test_description: Cytochrome P450 inhibition, CYP3A4
condition_label: human, probe fluorometric substrates (not named)
pIC50: −log10 of the molar value.
value_kind: pIC50

Sample CN(C/C=C\CN)C[C@H]1O[C@@H](n2cnc3c(N)ncnc32)[C@H](F)[C@@H]1O (stereo in doubt) ; pIC50 observed: < 5.30

###

test_description: Solubility in phosphate buffer
Type: physicochemical
condition_label: phosphate buffer, aqueous buffer, kinetic from dmso stock; Example 12 chart; pH 7.4
Each item that follows carries a reported solubility at 16 hours.

- molecule: "Cc1nc2c(N)ncnc2n1[C@@H]1O[C@H](CN(C)C/C=C\\CN)[C@@H](O)[C@H]1O (stereo in doubt) [Compound 4]"
  experimental_value: "> 49 µg/mL"
- molecule: "Cc1nc(N)c2ncn([C@@H]3O[C@H](CN(C)C/C=C\\CN)[C@@H](O)[C@H]3O)c2n1 [Compound 5]"
  experimental_value: "> 49 µg/mL"
- molecule: "CN(C/C=C\\CN)C[C@H]1O[C@@H](n2cnc3c(N)ncnc32)[C@H](F)[C@@H]1O (stereo in doubt) [Compound 1]"
  experimental_value: "> 47 µg/mL"

Sample CCCc1nc2c(N)ncnc2n1[C@@H]1O[C@H](CN(C)C/C=C\CN)[C@@H](O)[C@H]1O [Compound 7] ; solubility at 16 hours observed: > 52 µg/mL

###

Each item that follows carries a reported IC50.
target_or_system: CYP2C19 (Homo sapiens)
Sequence (P33261 whole entry): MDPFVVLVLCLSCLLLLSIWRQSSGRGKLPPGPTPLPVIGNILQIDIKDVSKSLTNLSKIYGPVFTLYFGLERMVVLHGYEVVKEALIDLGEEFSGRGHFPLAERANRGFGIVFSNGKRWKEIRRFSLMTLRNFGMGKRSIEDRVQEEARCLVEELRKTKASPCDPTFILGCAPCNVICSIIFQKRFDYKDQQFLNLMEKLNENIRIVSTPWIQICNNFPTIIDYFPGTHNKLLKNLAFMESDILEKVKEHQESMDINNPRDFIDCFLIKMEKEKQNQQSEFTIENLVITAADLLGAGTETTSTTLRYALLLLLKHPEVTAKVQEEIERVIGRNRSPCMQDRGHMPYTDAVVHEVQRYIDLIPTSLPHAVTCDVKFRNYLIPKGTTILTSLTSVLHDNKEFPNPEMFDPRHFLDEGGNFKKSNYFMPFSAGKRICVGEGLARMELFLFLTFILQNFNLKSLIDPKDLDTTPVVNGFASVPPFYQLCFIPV
test_description: Cytochrome P450 inhibition, CYP2C19

Below, 6 compounds whose answers are already recorded.
- compound: "CCCc1nc2c(N)ncnc2n1[C@@H]1O[C@H](CN(C)C/C=C\\CN)[C@@H](O)[C@H]1O"
  target_or_system: "CYP2C19 (Homo sapiens)"
  IC50: "> 5 µM"
- compound: "Cc1nc2c(N)ncnc2n1[C@@H]1O[C@H](CN(C)C/C=C\\CN)[C@@H](O)[C@H]1O (stereo in doubt)"
  target_or_system: "CYP2C19 (Homo sapiens)"
  IC50: "> 5 µM"
- compound: "CCc1nc2c(N)ncnc2n1[C@@H]1O[C@H](CN(C)C/C=C\\CN)[C@@H](O)[C@H]1O"
  target_or_system: "CYP2C19 (Homo sapiens)"
  IC50: "> 5 µM"
- compound: "Cc1nc(N)c2ncn([C@@H]3O[C@H](CN(C)C/C=C\\CN)[C@@H](O)[C@H]3O)c2n1"
  target_or_system: "CYP2C19 (Homo sapiens)"
  IC50: "> 5 µM"
- compound: "CN(C/C=C\\CN)C[C@H]1O[C@@H](n2cnc3c(N)ncnc32)[C@@H](F)[C@@H]1O"
  target_or_system: "CYP2C19 (Homo sapiens)"
  IC50: "> 5 µM"
- compound: "CN(C/C=C\\CN)C[C@H]1O[C@@H](n2cnc3c(N)nc(Cl)nc32)[C@H](O)[C@@H]1O"
  target_or_system: "CYP2C19 (Homo sapiens)"
  IC50: "> 5 µM"

Sample CN(C/C=C\CN)CC1OC(n2cnc3c(N)ncnc32)C(O)C1O (stereo not shown) [MDL-73811, reference compound] ; IC50 observed: > 5 µM

###

test_description: Mouse brain exposure
Assay type: in vivo
condition_label: in vivo; Table 3; mouse brain
value_kind: AUC (ng·h/mL)
Expressed in ng·h/mL, but write only the number.

Sample CN(C/C=C\CN)CC1OC(n2cnc3c(N)ncnc32)C(O)C1O (stereo not shown) [MDL-73811, reference compound] ; AUC observed: 280

###

test_description: Plasma protein binding (RED), human
Format: in vitro ADME
condition_label: pH 7.4; Table 2; human plasma
Description: Rapid Equilibrium Dialysis device (RED) is a 96-well formatted dialysis with disposable inserts and Teflon base design providing short incubation time. The membrane in RED physically separates of bound and free drug. After 4 hr incubation at 37° C., drug concentrations at both plasma (e.g., human, rat, dog, monkey, mouse) and pH 7.4 PBS buffer sides was quantitated by LC/MS/MS and % bound drug in plasma was calculated.
Each item that follows carries a reported fraction unbound at 4 hr.
// return a plain number; no unit text

- molecule: "Cc1nc2c(N)ncnc2n1[C@@H]1O[C@H](CN(C)C/C=C\\CN)[C@@H](O)[C@H]1O (stereo in doubt) [Compound 4]"
  experimental_value: 0.588

# ---- query molecule ----
Sample CN(C/C=C\CN)C[C@H]1O[C@@H](n2cnc3c(N)nc(Cl)nc32)[C@H](O)[C@@H]1O [Compound 3] ; fraction unbound at 4 hr observed: 0.61

###

test_description: Plasma protein binding (RED), mouse
Assay type: in vitro ADME
condition_label: pH 7.4; Table 2; mouse plasma
value_kind: fraction unbound
// return a plain number; no unit text

Sample CN(C/C=C\CN)CC1OC(n2cnc3c(N)ncnc32)C(O)C1O (stereo not shown) [MDL-73811, reference compound] ; fraction unbound observed: 0.302

###

target_or_system: CYP2D6 (Homo sapiens, UniProt P10635)
Sequence (P10635 whole entry): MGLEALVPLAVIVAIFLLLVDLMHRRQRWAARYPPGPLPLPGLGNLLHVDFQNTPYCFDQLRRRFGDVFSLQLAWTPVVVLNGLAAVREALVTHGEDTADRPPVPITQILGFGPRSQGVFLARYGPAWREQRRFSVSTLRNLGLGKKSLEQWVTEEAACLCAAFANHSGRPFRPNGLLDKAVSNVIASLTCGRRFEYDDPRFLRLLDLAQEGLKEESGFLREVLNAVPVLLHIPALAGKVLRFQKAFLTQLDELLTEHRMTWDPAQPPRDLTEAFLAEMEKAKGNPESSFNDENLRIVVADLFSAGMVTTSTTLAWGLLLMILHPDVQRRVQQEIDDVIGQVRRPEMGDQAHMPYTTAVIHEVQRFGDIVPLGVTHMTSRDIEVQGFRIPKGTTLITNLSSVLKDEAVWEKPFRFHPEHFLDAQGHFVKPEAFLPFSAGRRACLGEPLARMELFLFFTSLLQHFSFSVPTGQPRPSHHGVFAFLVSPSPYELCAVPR
test_description: Cytochrome P450 inhibition, CYP2D6
condition_label: human, probe fluorometric substrates (not named)
value_kind: IC50

Sample CN(C/C=C\CN)C[C@H]1O[C@@H](n2cnc3c(N)ncnc32)[C@H](F)[C@@H]1O (stereo in doubt) ; IC50 observed: > 5 µM

###

test_description: Permeability through lipid soaked artificial membrane
Assay type: in vitro ADME
condition_label: PAMPA; Example 12 chart
value_kind: Papp (×10⁻⁶ cm/s)
Expressed in ×10⁻⁶ cm/s, but write only the number.

- compound: "Cc1nc2c(N)ncnc2n1[C@@H]1O[C@H](CN(C)C/C=C\\CN)[C@@H](O)[C@H]1O (stereo in doubt)"
  display_unit: "×10⁻⁶ cm/s"
  Papp: 0.22

# ---- query compound ----
Sample CN(C/C=C\CN)CC1OC(n2cnc3c(N)ncnc32)C(O)C1O (centres unmarked) [MDL-73811, reference compound] ; Papp observed: 1.1
